- MEASUREMENT NOTES: Cytotoxicity against African green monkey Vero cells assessed as reduction in cell viability measured after 120 hrs by MTT assay
- Assay type: cell-based
- TEST PARAMETERS: chlorocebus sabaeus, Vero cells
PROPERTY MEASURED: CC50 at 120 h (µM)
Answer format: numeric, µM implied, no suffix.

Q: So what does the record say about CC50 at 120 h for CSc1ncnc2c1ncn2[C@@H]1O[C@H](CO)[C@@H](O)[C@H]1O ?
Ans: 291

---

- Test system: Vero
- MEASUREMENT NOTES: Cytotoxicity against African green monkey Vero cells assessed as reduction in cell viability measured after 1 hr by MTT assay
- Assay type: cell-based
- TEST PARAMETERS: chlorocebus sabaeus, vero, 1 h
PROPERTY MEASURED: CC20

// below: answered molecules
MOLECULE	CC20
CCCCCCCC/C=C\CCCC(=O)O[C@@]12C[C@@H](C)[C@@]3(O)[C@@H](C=C(CO)C[C@]4(O)C(=O)C(C)=C[C@@H]34)[C@@H]1C2(C)C	8.7 to 328 µM
CCCCCCCC/C=C\CCCC(=O)O[C@@]12C[C@@H](C)[C@@]3(O)[C@@H](C=C(C=O)C[C@]4(O)C(=O)C(C)=C[C@@H]34)[C@@H]1C2(C)C	8.7 to 328 µM
CCCCCCCCCCCC(=O)O[C@@]12C[C@@H](C)[C@@]3(O)[C@@H](C=C(C=O)C[C@]4(O)C(=O)C(C)=C[C@@H]34)[C@@H]1C2(C)C	8.7 to 328 µM
C/C(=C\C(=O)O[C@@H]1[C@H](C)C[C@H]2O[C@]1(O)[C@@H](O)[C@@]1(C)CC[C@H](O1)C(C)(C)/C=C/[C@H](C)C2=O)C(C)O (some centres not stated)	8.7 to 328 µM
CC1(C)CC[C@@H]2C(=O)C=C3[C@]4(C)CC[C@@H]5[C@](C)(CC[C@@H](OC(=O)c6ccccc6)[C@@]5(C)C(=O)O)[C@H]4CC[C@@]3(C)[C@@H]2C1	8.7 to 328 µM
CC1(C)CC[C@@H]2C(=O)C=C3[C@]4(C)CC[C@@H]5[C@](C)(CC[C@@H](OC(=O)/C=C/c6ccccc6)[C@@]5(C)C(=O)O)[C@H]4CC[C@@]3(C)[C@@H]2C1	8.7 to 328 µM
CC(=O)O[C@H](C)/C(C)=C/C(=O)O[C@@H]1[C@H](C)C[C@H]2O[C@]1(O)[C@@H](O)[C@@]1(C)CC[C@H](O1)C(C)(C)/C=C/[C@H](C)C2=O	8.7 to 328 µM
CCCCCCCCCCCC(=O)O[C@@]12C[C@@H](C)[C@@]3(O)[C@@H](C=C(CO)C[C@]4(O)C(=O)C(C)=C[C@@H]34)[C@@H]1C2(C)C	8.7 to 328 µM
CCCCCCCCCCCCCCCC(=O)O[C@@H]1[C@@H](C)[C@]2(O)[C@@H]3C=C(C)C(=O)[C@@H]3CC(C=O)=C[C@H]2[C@@H]2C(C)(C)[C@]12OC(C)=O	8.7 to 328 µM
CCCCCCCCCCCCCC(=O)O[C@@]12C[C@@H](C)[C@@]3(O)[C@@H](C=C(CO)C[C@]4(O)C(=O)C(C)=C[C@@H]34)[C@@H]1C2(C)C	8.7 to 328 µM

Q: Record lookup: for Vero, what CC20 belongs to CC/C(C)=C/C(=O)O[C@@H]1[C@H](C)C[C@H]2O[C@]1(O)[C@@H](O)[C@@]1(C)CC[C@H](O1)C(C)(C)/C=C/[C@H](C)C2=O ?
Ans: 8.7 to 328 µM

Q: Record lookup: for Vero, what CC20 belongs to CCCCCCCCCCCCCCCC(=O)O[C@@H]1[C@@H](C)[C@]2(O)[C@@H]3C=C(C)C(=O)[C@@H]3CC(CO)=C[C@H]2[C@@H]2C(C)(C)[C@]12OC(C)=O ?
Ans: 8.7 to 328 µM

Data provenance: ChEMBL document CHEMBL4334505
